Numbers sourced from PubChem BioAssay.

tested on: Follistatin (Homo sapiens)
experiment summary: follistatin binders on small-molecule microarrays, primary screen, biochemical, small-molecule microarray, 635/667 nm fluorescence (AID 1132)
settings: FST binding, 635 nm fluorescence, higher = more signal
measured parameter: composite z-score
Answers are plain numbers.

# annotated cases, reported composite z-score shown
compound	quantitative readout
COC(=O)C1(CC(C)C)C=C2C(=C(C)C(=O)C2C)CN1 (stereo not drawn)	0.901
Cc1ccc(S(=O)(=O)N2[C@@H](c3ccccc3)C(C(=O)O)=C[C@H]2C(C)(C)C)cc1	0.804
COCCCNC(=O)[C@@]1(CCC(=O)OC(C)(C)C)N=C(c2ccc(OCCCO)cc2)O[C@H]1c1ccccc1	1.36
CCOC(=O)C[C@H]1[C@H](OC(=O)c2ccc(-c3ccccc3)cc2)[C@@H](NC(=O)c2ccc(-c3ccccc3)cc2)c2cc(OCCCO)ccc2N1C(=O)c1ccccc1	0.627
CN1C(=O)C2CC=C(C3=CCO[C@@H]3[C@H]3CCCN3S(=O)(=O)c3ccccc3[N+](=O)[O-])CC2C1=O (stereo partly drawn)	0.0289
CC(C)c1ccc(NN2C(C(O)C(C)c3ccccc3)C=CC3C(=O)N(c4ccccc4)C(=O)C32)cc1 (stereo not drawn)	1.2

Hi! Can you tell me composite z-score for each of these compounds?
1. O=C(NCC(F)(F)F)[C@@H]1c2ccccc2C(=O)N(Cc2cc(C(F)(F)F)cc(C(F)(F)F)c2)[C@H]1c1ccc(CO)cc1
2. CCCCCCc1nc(-c2ccc(OC)nc2)c(C)c2c1[Si](C(C)C)(C(C)C)OC2

Given back:
1: 0.647; 2: 0.553
